B1: mRNA-splicing (parent)
chain: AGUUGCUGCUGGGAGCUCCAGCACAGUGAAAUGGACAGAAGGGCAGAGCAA

# Variants of: B1
# ASSAY_PROCEDURE: exon inclusion enrichment index; higher = more inclusion; WT1 exon 5 minigene, HEK293
Measured exon inclusion enrichment index, listed per entry.
Keep it simple and answer with nothing but the number.

[ask] Supply recorded exon inclusion enrichment index for AGUUGAAGAAGGGAGCUCCAGCACACUGAAAUGGACAGAAGGGCAGAGCAA [C6A U7A C9A U10A G26C] here.
[reply] 1.1
